# Test system: RAW-Dual (murine macrophage reporter line)
# method: viability score (confluency relative to resting cells, overnight) (fraction); higher = more viable, active = viable (0.7 or more)
# condition_details: modulator concentration 10 µM
// viability score lookup, one value per entry
// return a plain number; no unit text

Consider the reported viability score for these molecules:
- molecule: "Oc1cc(O)c2c(c1)OC(c1ccc(O)c(O)c1)C(O)C2 (stereo not given)"
  tgt: "RAW-Dual (murine macrophage reporter line)"
  viability score: 1.06
- molecule: "COc1ccc(Nc2nc(Nc3ccc4ncccc4c3)nc(N3CCOCC3)n2)cc1"
  tgt: "RAW-Dual (murine macrophage reporter line)"
  viability score: 0.904
- molecule: "Clc1cccc(C=Nc2ccc(N=Cc3cccc(Cl)c3Cl)cc2)c1Cl"
  tgt: "RAW-Dual (murine macrophage reporter line)"
  viability score: 1
- molecule: "Cc1ccc(O)c(N=Nc2ccc(S(=O)(=O)O)cc2)c1"
  tgt: "RAW-Dual (murine macrophage reporter line)"
  viability score: 1.01

Would you kindly look at the next entry?
Note viability score for the molecule shown: `CCOC(=O)[C@H](CCc1ccccc1)N[C@H]1CCc2ccccc2N(CC(=O)O)C1=O.Cl` 0.999

---

# Test system: RAW-Dual (murine macrophage reporter line)
# method: NF-kB reporter (SEAP) activity fold change vs agonist alone; higher = enhanced NF-kB activity
# condition_details: modulator concentration 10 µM; agonist: CpG ODN 1826 0.5 ug/mL
quantity_name: NF-kB reporter

Below, each entry is followed by its recorded NF-kB reporter result.
- molecule: "O=C(NCCc1nc(C2CC2)cc(C(F)(F)F)n1)c1c(F)cccc1Cl"
  NF-kB reporter: 1.01
- molecule: "O=C(NN=Cc1c(Br)sc2ccccc12)c1cccc(Cl)c1"
  NF-kB reporter: 0.972
- molecule: "COc1ccc(C2SCc3cc(C)c(C)cc3CS2)cc1OC"
  NF-kB reporter: 0.831
- molecule: "C1N2CN3CN1CN(C2)C3"
  NF-kB reporter: 1.07
- molecule: "COC(=O)CNC(c1ccccc1)c1cc(Br)ccc1NC(=O)c1ccccc1 (stereo unspecified)"
  NF-kB reporter: 1.06

Give the measured NF-kB reporter for `CC(C)CSc1nnc2c(n1)[nH]c1ccccc12` 1.06

Determine from records and report NF-kB reporter for `CC12CC3(C)CC(C)(C1)CC(C(=O)NC(C)(C)CO)(C2)C3` 0.866

Indicate its recorded NF-kB reporter; the molecule in question is CCOC(=O)c1ccc(N2C(=O)CC(N3CCN(c4ccc([N+](=O)[O-])cc4)CC3)C2=O)cc1 (stereo unspecified) 0.813

Consider the molecule `Cc1ccc(S(=O)(=O)n2nc(C)c(C)c2C)cc1C` and give its recorded NF-kB reporter. 0.929

Return value of NF-kB reporter for input CC(C)c1ccccc1NC(=O)C1COCC(=O)N1Cc1ccccc1 (stereo unspecified) , no commentary. 0.983

State its NF-kB reporter: `COc1ccc(C=NN2CCN(C)CC2)c(OC)c1` 0.84

---

# Tested on: RAW-Dual (murine macrophage reporter line)
# method: IRF reporter (Lucia luciferase) activity fold change vs agonist alone; higher = enhanced IRF activity
# condition_details: modulator concentration 10 µM; agonist: MPLA […]
IRF reporter listing for selected compounds.
// no unit string in output, number only

- compound: "O=C(c1ccc(OC(F)(F)F)cc1)N1CCC(Oc2cccnn2)CC1"
  measured_number: 1.15
- compound: "Cc1cccc(OCCn2cc(C=Nn3cnnc3)c3ccccc32)c1"
  measured_number: 1.5

Answer with the recorded IRF reporter for the compound listed here: `OCC(CO)N[C@H]1C[C@](O)(CO)[C@@H](O)[C@H](O)[C@H]1O` 0.884

Please give measured IRF reporter of the following entry: `CCCc1nc2ccccc2n1C(=O)C=CC(=O)O` 1.59

Given `COc1ccc(N2C(=O)C(=Cc3ccc([N+](=O)[O-])s3)SC2=S)cc1` , respond with its IRF reporter. 1.2

Complete the entry with IRF reporter for `Nc1ccccc1S(N)(=O)=O` 1.1

Supply measured IRF reporter of `Cc1cc(C)n2nc(C(=O)NN=Cc3ccc(N(C)C)cc3)nc2n1` in your reply. 1.3

Annotate the compound `CCCOc1cccc(C=C2N=C(c3ccc(Cl)c([N+](=O)[O-])c3)OC2=O)c1` with its measured IRF reporter. 1.04

Quickly give me recorded IRF reporter for Cc1ccc(OCC(O)CN2CCCCC2)c(C)c1.Cl (configuration not stated) 1.28

State, in one line, measured IRF reporter of `COc1ccc(C2SCc3cc(C)c(C)cc3CS2)cc1OC` 1.64

Item CCS(=O)(=O)N1N=C(c2ccc(NS(C)(=O)=O)cc2)CC1c1ccccc1 (configuration not stated) : provide IRF reporter 1.4

State its IRF reporter for this compound: `CC1(C)OC(=O)NC1=O` 1.01

Report IRF reporter for `Fc1ccc(Nc2nc(NN=Cc3ccccc3Cl)nc(N3CCCCC3)n2)cc1` 1.48

Give me measured IRF reporter, please, for this compound: `NC(=O)c1ccccc1O` 1.19

Note IRF reporter for the compound shown: `Brc1ccc2[nH]cc(-c3nnc4ccc5ccccc5n34)c2c1` 2.08

Indicate its recorded IRF reporter; the compound in question is NC(=O)C1CCCN1c1ncccc1C(F)(F)F (configuration not stated) 1.01

// fetch IRF reporter given entry COC(=O)C1C(=O)C(=CNc2ccccc2C)C(=O)CC1(C)C (configuration not stated) 1.08

Return value of IRF reporter for input `CCOC(=O)C1=C(C)NC(C)=C(C(=O)OCC)C1c1cccs1` , no commentary. 1.08

State, in one line, measured IRF reporter of `CC(=O)Oc1c(C)cc2sc3ccccc3c(=O)c2c1C` 1.2

Specify IRF reporter for `C[C@H]1O[C@H]1P(=O)(O)O.NC(CO)(CO)CO` and stop. 0.989

---

# System: RAW-Dual (murine macrophage reporter line)
# method: NF-kB reporter (SEAP) activity fold change vs agonist alone; higher = enhanced NF-kB activity
# condition_details: modulator concentration 10 µM; agonist: CpG ODN 1826 0.5 ug/mL
As shown below, each of these molecules has a reported NF-kB reporter value.
# respond with the number and nothing more

// below: answered molecules
- molecule: "O=C(CSc1ccc(F)cc1)N1CCn2nc3c(c2C1)CCC3"
  measured_number: 1.39
- molecule: "CC1=C(C(N)=O)C(c2cccs2)NC(=O)N1 (stereo not given)"
  measured_number: 0.974
- molecule: "Cc1ccc(NC(=O)Nc2c(C)nc(N3CCN(C)CC3)nc2C)cc1F"
  measured_number: 0.993
- molecule: "Cn1nc(CNC(=O)c2cccc3ccccc23)cc1C1CC1"
  measured_number: 1.18

Next, consider the following molecule.
Report NF-kB reporter for `CC(C)CN(C[C@@H](O)[C@H](Cc1ccccc1)NC(=O)O[C@H]1CO[C@H]2OCC[C@H]21)S(=O)(=O)c1ccc(N)cc1` 1.74

---

# System: RAW-Dual (murine macrophage reporter line)
# method: IRF reporter (Lucia luciferase) activity fold change vs agonist alone; higher = enhanced IRF activity
# condition_details: modulator concentration 10 µM; agonist: 3'3'-cGAMP 10 ug/mL
Reported IRF reporter values for the following molecules.
Format: numeric value only, no unit, no commentary.

Some solved entries appear below for comparison.
- molecule: "CC1CCc2nnc(OCC3CCCN3C)cc2C1 (stereo not given)"
  measured_number: 0.972
- molecule: "COc1ccc2c(c1)c(CC(=O)OCC(=O)O)c(C)n2C(=O)c1ccc(Cl)cc1"
  measured_number: 0.938
- molecule: "O=c1n(CCCN2CCN(c3cccc(Cl)c3)CC2)nc2ccccn12"
  measured_number: 0.932
- molecule: "CC(C(=O)O)c1ccc(C(=O)c2cccs2)cc1 (stereo not given)"
  measured_number: 0.97
- molecule: "COC(=O)C1=C(C)NC(=O)CC1c1ccc(Cl)c(Cl)c1 (stereo not given)"
  measured_number: 1.06
- molecule: "CCCCc1nc(Cl)c(CO)n1Cc1ccc(-c2ccccc2-c2nnn[nH]2)cc1"
  measured_number: 0.944

Fill in IRF reporter for record CN(C)C1C(O)=C(C(N)=O)C(=O)C2(O)C(O)=C3C(=O)c4c(O)ccc(Cl)c4C(O)C3CC12.Cl (stereo not given) 0.894

Return IRF reporter (reported value) for this molecule: `O=C1OC(c2ccc3ccccc3c2)=NC1=Cc1ccc(Cl)c([N+](=O)[O-])c1` 0.976

Specify reported IRF reporter for the molecule shown: `CCN(CC)CCOC(=O)C(c1ccccc1)c1ccccc1` 1.2

Specify measured IRF reporter for `COc1cc(C=NN2C(=O)c3cccc4cccc(c34)C2=O)cc(Br)c1OC` . 1.01

Return IRF reporter (reported value) for this molecule: `Cc1c(-c2ccccc2)oc2c(C(=O)OCCN3CCCCC3)cccc2c1=O.Cl` 0.883

Tell me measured IRF reporter for O=C(NCCC(CCO)c1ccccc1)c1cccc(Cl)c1 (stereo not given) please. 0.748

// fetch IRF reporter given entry `O=S(=O)(N=Cc1c(O)ccc2ccccc12)c1cccs1` 0.74

Identify the reported IRF reporter for the following entry. O=C(c1ccc(Cl)cc1)N(c1ccccc1)C1C=CS(=O)(=O)C1 (stereo not given) 0.814

Output measured IRF reporter for this item: Nc1ncnc2c1ncn2C1CC(O)C(CO)O1 (stereo not given) 1.12

Ref: the supplement of paper PMC10646978
